# Study system: rat TIMP-1 (rat, UniProt P30120 24-217)
# Sequence (P30120 24-217 limits assumed): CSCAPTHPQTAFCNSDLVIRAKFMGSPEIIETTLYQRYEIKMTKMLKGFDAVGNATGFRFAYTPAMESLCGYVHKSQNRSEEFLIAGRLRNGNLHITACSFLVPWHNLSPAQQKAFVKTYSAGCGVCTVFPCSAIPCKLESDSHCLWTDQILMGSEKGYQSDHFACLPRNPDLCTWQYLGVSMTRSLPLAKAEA
# Experiment description: SPR (BIAcore), TIMP-1 coupled to chip, monovalent Fab
pKd: −log10 of the molar value.
Endpoint label: pKd

{"columns": ["Binder", "Endpoint label", "Result"],
 "data": [
  ["MS-BW-19 (Fab, V domains shown, Fab, FLAG + Strep-tag II; not tied by name) VH: QVQLVQSGAEVKKPGESLKISCKGSGYSFTSYWIGWVRQMPGKGLEWMGIIYPGDSDTRYSPSFQGQVTISADKSISTAYLQWSSLKASDTAMYYCARYVTYGYDDYHFDYWGQGTLVTVSS VL: DIALTQPASVSGSPGQSITISCTGTSSDVGGYNYVSWYQQHPGKAPKLMIYDVSNRPSGVSNRFSGSKSGNTASLTISGLQAEDEADYYCQSWDINHAIVFGGGTKLTVLG", "pKd", "~6.73"],
  ["MS-BW-24 (Fab, V domains shown, Fab, FLAG + Strep-tag II; not tied by name) VH: QVQLVQSGAEVKKPGESLKISCKGSGYSFTSYWIGWVRQMPGKGLEWMGIIYPGDSDTRYSPSFQGQVTISADKSISTAYLQWSSLKASDTAMYYCARYYVTDTAYFDYWGQGTLVTVSS VL: DIALTQPASVSGSPGQSITISCTGTSSDVGGYNYVSWYQQHPGKAPKLMIYDVSNRPSGVSNRFSGSKSGNTASLTISGLQAEDEADYYCQSDLYFPVFGGGTKLTVLG", "pKd", 7.64]
]}

Next item in the queue.
Ask | Consider the binder shown here: MS-BW-12 (Fab, V domains shown, Fab, FLAG + Strep-tag II; not tied by name) VH: QVQLQQSGPGLVKPSQTLSLTCAISGDSVSSNSAAWNWIRQSPGRGLEWLGRTYYRSKWYNDYAVSVKSRITINPDTSKNQFSLQLNSVTPEDTAVYYCARGYADISFDYWGQGTLVTVSS VL: DIALTQPASVSGSPGQSITISCTGTSSDVGGYNYVSWYQQHPGKAPKLMIYDVSNRPSGVSNRFSGSKSGNTASLTISGLQAEDEADYYCQSYDMIARYPVFGGGTKLTVLG What is its recorded pKd?
Reply | ~6.38
